Cited source: PubChem BioAssay (NCATS)

# systemUnderTest: Ubiquitin carboxyl-terminal hydrolase 1 (Homo sapiens)
# experimentSummary: Inhibitors of USP1/UAF1: Pilot qHTS (AID 504865); further: nearly all actives have a fitted effect of over 35% in size
# condition: purified USP1/UAF1, Ub-rhodamine cleavage fluorescence; series mostly up to 114 µM
# From the text: Deubiquitinating enzymes (DUBs) are a class of enzymes that can cleave isopeptide bond formed between the C-terminal carboxylate of ubiquitin and a lysine side-chain amino group on the target protein. Among them, ubiquitin specific proteases (USPs) constitute the largest DUB family. […]
Records with an inconclusive call do not appear. Activity calls are given as the source filed them. The call rests on the fitted dose curve; in most records, active means well fitted inhibition curve with a large enough effect; inconclusive means small, poorly fitted or top-dose-only effect; inactive means flat fitted curve, though single readings scatter.
Classes used: 1.0 (active), 0.0 (inactive)

1. CC(C)NC[C@H](O)COc1ccc(CC(N)=O)cc1 ... 0.0
2. Cn1c(=O)c2[nH]c(C3CCCC3)nc2n(C)c1=O ... 0.0
3. CC[N+](CC)(CC)CC(=O)Nc1c(C)cccc1C ... 0.0
4. CC(C)C[C@H](NC(=O)C1OC1C(=O)O)C(=O)NCCCCN=C(N)N (stereo partly specified) ... 0.0
5. OC[C@H]1O[C@H](n2cnc3c(N[C@H]4CCC[C@@H]4O)ncnc32)[C@H](O)[C@@H]1O ... 0.0
6. Cn1ccnc1 ... 0.0
7. CCCCCCC(=O)OC1CC(C)(C)NC(C)(C)C1 ... 0.0
8. CCCCC[C@H](CC(=O)NO)C(=O)N[C@H](C(=O)N1CCC[C@H]1CO)C(C)C ... 0.0
9. N[C@@H](CS(=O)O)C(=O)O ... 0.0
10. NC(N)=NC(N)=Nc1cccc(Cl)c1 ... 0.0
11. CC1CCN(CC[C@H]2CCCN2S(=O)(=O)c2cccc(O)c2)CC1 ... 0.0
12. NC(=O)CNCCC(c1ccccc1)c1ccccc1 ... 0.0
13. O=C(O)C1=CCCN(CCON=C(c2ccccc2)c2ccccc2)C1 ... 0.0
14. Nc1ncnc2c1ncn2C1CCCO1 (stereo unspecified) ... 0.0
15. O=C(O)CCC(=O)N1CCCC1C(=O)O (stereo unspecified) ... 0.0
16. CN(C)CCC(c1ccc(Br)cc1)c1ccccn1 (stereo unspecified) ... 0.0
17. CCCn1c(=O)c2c(ncn2C)n(CCC)c1=O ... 0.0
18. O=[N+]([O-])c1cccc2c(Br)[nH]nc12 ... 0.0
19. N=C(N)c1ccccc1 ... 0.0
20. CC(O)C(O)[C@H]1CNc2nc(N)[nH]c(=O)c2N1 (stereo partly specified) ... 0.0
21. CC(N)(Cc1ccc(O)c(O)c1)C(=O)O (stereo unspecified) ... 0.0
22. CCCCCCCCCCCCCCC[C@H](O)[C@H](N)CO ... 1.0
23. CN[C@H](CC(=O)O)C(=O)O ... 0.0
24. CCCCS(=N)(=O)CC[C@H](N)C(=O)O (stereo partly specified) ... 0.0
25. CCCCOc1cc(CC2CNC(=O)N2)ccc1OC (stereo unspecified) ... 0.0
26. NCCC1CCCC(CCN)N1 (stereo unspecified) ... 0.0
27. COc1ccccc1N1CCN(CCCCNC(=O)c2ccc3ccccc3c2)CC1 ... 0.0
28. CCN1C(=O)C=CC1=O ... 0.0
29. Nn1nnc2ccccc21 ... 0.0
30. CN1Cc2sccc2C(c2ccc(O)c(O)c2)C1 (stereo unspecified) ... 0.0
31. NOCC(=O)O ... 0.0
32. c1ccc2nc(C3=NCCN3)ccc2c1 ... 0.0
33. C[N+](C)(C)CC=O ... 0.0
34. N[C@H]1CONC1=O ... 0.0
35. Cn1cc(C(F)(F)F)nc1-c1ccc(OCC(O)CNCCOc2ccc(O)c(C(N)=O)c2)cc1 (stereo unspecified) ... 0.0
36. CN1CCCC1CCOC(C)(c1ccccc1)c1ccc(Cl)cc1 (stereo unspecified) ... 0.0
37. O=C(O)c1cc2cc(F)ccc2[nH]1 ... 0.0
38. Cc1cc(Cn2cnc3c2C[C@@H](C(=O)O)N(C(=O)C(c2ccccc2)c2ccccc2)C3)ccc1N ... 0.0
39. Cc1cc2c(cc1Cl)N(C(=O)Nc1ccnc3ccccc13)CC2 ... 0.0
40. N#CC(C#N)=C(N)/C(C#N)=C/c1ccc(O)cc1 ... 0.0
41. CC(C)C[C@H](NC(=O)[C@H](O)[C@H](N)Cc1ccccc1)C(=O)O ... 0.0
42. O=C(O)CCC/C=C\C[C@@H]1[C@@H](/C=C/[C@H](O)C2Cc3ccccc3C2)[C@@H](F)C[C@@H]1O ... 0.0
43. N[C@@H](CCCC(=O)O)C(=O)O ... 0.0
44. C#CCn1c(=O)c2c(ncn2C)n(C)c1=O ... 0.0
45. Nc1nc2c(nc(Br)n2C2OC3COP(=O)(O)O[C@@H]3C2O)c(=O)[nH]1 (stereo partly specified) ... 0.0
46. CCCCCCC/C=C\CCCCCCCCC(=O)O ... 1.0
47. NC(N)=NC(N)=Nc1ccccc1 ... 0.0
48. CC(C)NC[C@H](O)COc1cccc2ccccc12 ... 0.0
49. CC(C)[C@@H]1CC[C@@H](C)C[C@@H]1P(=O)(c1ccccc1)c1ccccc1 ... 0.0
50. CCCc1c(-c2ccc(O)cc2)nn(-c2ccc(O)cc2)c1-c1ccc(O)cc1 ... 0.0
51. C=C1C[C@@]23CC[C@H]4[C@@](C)(CCC[C@@]4(C)C(=O)OC4OC(CO)C(O)C(O)C4O)[C@@H]2CC[C@]1(OC1OC(CO)C(O)C(O)C1OC1OC(CO)C(O)C(O)C1O)C3 (stereo partly specified) ... 0.0
